FYI, the data here is from the supplement of paper PMC8728848.

# system: Gal(b1-3)[Fuc(a1-4)]GlcNAc(b1-3)Gal(b1-4)GlcNAc
# protocol-summary: glycan array binding signal (z-score within array); higher = stronger binding
# particulars: glycan notation: IUPAC condensed, linker removed
Many of the other results were omitted from the sample, so the strongest signals are more common in it than they were.
value-type: glycan array binding signal (z-score)
Simply state the number, no unit and no words.

Please review the entries below; each comes with its answer.
binder | glycan array binding signal (z-score)
CBM32-5 (Clostridium perfringens) (protein) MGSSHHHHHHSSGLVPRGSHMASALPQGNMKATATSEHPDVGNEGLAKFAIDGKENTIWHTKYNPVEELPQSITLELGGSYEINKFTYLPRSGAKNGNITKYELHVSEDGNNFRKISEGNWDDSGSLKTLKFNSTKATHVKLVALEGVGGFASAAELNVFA | -0.65
BC2L-D C-terminal domain (Burkholderia cenocepacia), Q39MQ9_BURS3 (protein) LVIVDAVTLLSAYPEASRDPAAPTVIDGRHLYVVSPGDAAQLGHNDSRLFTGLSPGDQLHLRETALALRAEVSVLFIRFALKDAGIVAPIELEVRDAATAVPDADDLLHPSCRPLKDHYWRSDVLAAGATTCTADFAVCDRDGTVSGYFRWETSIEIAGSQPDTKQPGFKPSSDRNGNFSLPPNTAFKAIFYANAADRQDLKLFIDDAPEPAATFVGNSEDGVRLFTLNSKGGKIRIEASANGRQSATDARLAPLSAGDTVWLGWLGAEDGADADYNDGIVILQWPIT | -0.137
SRS2 (Toxoplasma gondii), O15695 (protein) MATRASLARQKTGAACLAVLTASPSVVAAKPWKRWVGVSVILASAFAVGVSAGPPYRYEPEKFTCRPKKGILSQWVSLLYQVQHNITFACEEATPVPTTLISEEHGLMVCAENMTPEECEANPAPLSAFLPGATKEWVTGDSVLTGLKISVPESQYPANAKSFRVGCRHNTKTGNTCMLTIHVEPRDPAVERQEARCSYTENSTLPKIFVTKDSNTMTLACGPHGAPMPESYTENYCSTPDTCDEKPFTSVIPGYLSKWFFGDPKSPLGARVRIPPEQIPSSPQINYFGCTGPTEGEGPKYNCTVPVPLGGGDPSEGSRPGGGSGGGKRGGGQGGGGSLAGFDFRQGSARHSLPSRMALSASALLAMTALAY | -0.495

Pending binder:
Prompt: Indicate its recorded glycan array binding signal (z-score); the binder in question is 3FTT (Staphylococcus aureus), Q5HCZ5 (protein) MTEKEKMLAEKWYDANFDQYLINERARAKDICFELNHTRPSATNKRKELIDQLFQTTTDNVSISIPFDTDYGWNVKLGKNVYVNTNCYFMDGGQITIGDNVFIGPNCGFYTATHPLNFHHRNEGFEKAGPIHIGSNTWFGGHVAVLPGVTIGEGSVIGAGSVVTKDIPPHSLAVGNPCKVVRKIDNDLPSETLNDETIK
Completion: -0.017
